Entries and their measured refractive index follow.
assay: refractive index (Na D-line) (dimensionless); conditions: 293.2 K; 101.33 kPa; Liquid; Standard Abbe refractometry
# answer = number (no unit)

>>> df
                                   molecule  measuredendpoint  resultnumber
0  COC(=O)CCCC(=O)OC [dimethyl pentanedioate]  refractive index       1.42454
1                        O=CO [formic acid]  refractive index       1.37144
2  COC(=O)CCC(=O)OC [dimethyl 1,4-butanedioate]  refractive index       1.41969

// query Answer with reported refractive index of COC(=O)CCCCC(=O)OC [dimethyl 1,6-hexanedioate]
// result 1.42825
